# assay.name: Oral bioavailability in healthy volunteer at 100 mg, twice daily
# study.conditions: human, in vivo
metric: bioavailability

// O=C(Nc1cnn2ccc(N3CCC[C@@H]3c3cc(F)ccc3F)nc12)N1CC[C@H](O)C1.O=S(=O)(O)O [LAROTRECTINIB SULFATE] : bioavailability value = 32 to 37%

---

# System: SK-OV-3
# assay.name: Cytotoxicity against human SKOV3 cells after 24 to 72 hrs by MTT assay
# Format: functional, cell-based
Below is a list of entries, each paired with its recorded IC50 value.

>  <substance>
H-TGLDSDGLYQN-OH

>  <system.name>
SK-OV-3

>  <IC50>
200 nM

$$$$

Entry H-NTDLLNSNDNG-OH , SK-OV-3 data, IC50 value: 200 nM

---

Listed compounds paired with reported IC50
# system.name: High affinity nerve growth factor receptor (Homo sapiens, UniProt P04629)
# Sequence (P04629 whole entry): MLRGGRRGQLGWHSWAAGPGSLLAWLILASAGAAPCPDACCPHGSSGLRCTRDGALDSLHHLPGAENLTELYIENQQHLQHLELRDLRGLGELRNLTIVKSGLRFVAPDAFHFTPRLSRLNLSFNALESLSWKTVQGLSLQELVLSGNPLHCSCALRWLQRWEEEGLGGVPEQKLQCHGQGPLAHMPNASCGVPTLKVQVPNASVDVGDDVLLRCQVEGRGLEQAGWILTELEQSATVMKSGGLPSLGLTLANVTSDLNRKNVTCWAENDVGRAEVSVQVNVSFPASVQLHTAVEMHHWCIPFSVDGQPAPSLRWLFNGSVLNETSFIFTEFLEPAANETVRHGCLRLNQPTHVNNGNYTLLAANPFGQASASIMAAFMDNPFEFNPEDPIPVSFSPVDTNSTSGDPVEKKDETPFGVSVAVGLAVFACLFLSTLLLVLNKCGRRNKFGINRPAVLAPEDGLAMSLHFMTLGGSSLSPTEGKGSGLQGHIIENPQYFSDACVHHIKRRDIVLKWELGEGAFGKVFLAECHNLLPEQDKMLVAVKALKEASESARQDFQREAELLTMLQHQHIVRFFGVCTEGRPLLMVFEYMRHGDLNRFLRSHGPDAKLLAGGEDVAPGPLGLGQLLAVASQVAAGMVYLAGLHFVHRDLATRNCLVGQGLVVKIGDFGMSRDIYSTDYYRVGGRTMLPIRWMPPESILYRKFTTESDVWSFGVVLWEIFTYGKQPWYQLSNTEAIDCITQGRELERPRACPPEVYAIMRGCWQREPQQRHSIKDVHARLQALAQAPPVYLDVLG
# assay.name: Inhibition TRKA (unknown origin) by cell based assay
Field format: number, assumed nM, no unit text.

Reference set (2 entries):
>  <smiles.entry>
COCCN1C[C@@H](NC(=O)Nc2c(C)c(-c3cnn(C)c3)nn2-c2ccccc2)[C@H](c2ccccc2)C1

>  <metric>
IC50

>  <measurement>
6.1

$$$$
>  <smiles.entry>
COCCN1C[C@@H](NC(=O)Nc2c(C)c(C(C)(C)C)nn2-c2ccccc2)[C@H](c2ccc(F)c(F)c2)C1

>  <metric>
IC50

>  <measurement>
1.3

$$$$

# IC50 (compound: COCCN1C[C@@H](NC(=O)Nc2c(C)c(-c3ccnc(C)n3)nn2-c2ccccc2)[C@H](c2cccc(F)c2)C1 ) is 1.9

---

# system.name: High affinity nerve growth factor receptor (Homo sapiens, UniProt P04629)
# assay.name: Inhibition of recombinant full length human TRKA expressed in U2OS cells using Poly(Glu:Tyr) as substrate after 30 mins by scintillation counting assay
metric: pIC50
Scale note: pIC50 = -log10(concentration in M).

>  <smiles.entry>
CC(C)N1Cc2cc(c(F)cc2F)OCCCNC(=O)c2cnn3ccc1nc23

>  <measurement>
9.70

$$$$
>  <smiles.entry>
Cc1nc(-c2ccccc2)c(NC(=O)Nc2cnc3ccccn23)s1

>  <measurement>
7.32

$$$$
>  <smiles.entry>
COCCN1C[C@@H](NC(=O)Nc2c(C)c(-c3cnn(C)c3)nn2-c2ccccc2)[C@H](c2ccccc2)C1

>  <measurement>
8.77

$$$$
>  <smiles.entry>
COCCN1C[C@@H](NC(=O)Nc2c(C)c(-c3ccnc(C)n3)nn2-c2ccccc2)[C@H](c2cccc(F)c2)C1

>  <measurement>
8.96

$$$$
>  <smiles.entry>
CC(C)(O)c1ccc2nc(-c3ccccc3)c(NC(=O)c3cc(-c4ncccn4)c(C(F)(F)F)cc3F)n2c1

>  <measurement>
9.05

$$$$

Input Cn1ccc(-c2cc(C(=O)Nc3c(-c4ccccc4)nc4ccc(CO)cn34)ccc2C(F)(F)F)n1 . Output pIC50: 9.00

Reported pIC50 ( COCCN1C[C@@H](NC(=O)Nc2c(C)c(C(C)(C)C)nn2-c2ccccc2)[C@H](c2ccc(F)c(F)c2)C1 ) = 8.82

Record CC(C)N1Cc2cc(cc(F)c2Cl)O[C@@H](C)CNC(=O)c2cnn3ccc1nc23 , field pIC50: 9.70

---

# assay.name: Cmax in cancer patient at 100 mg, twice daily
# Type: ADME
# Set-up: dose 100 mg
# study.conditions: human, in vivo
metric: Cmax

Please fill in: Cmax reported for O=C(Nc1cnn2ccc(N3CCC[C@@H]3c3cc(F)ccc3F)nc12)N1CC[C@H](O)C1.O=S(=O)(O)O [LAROTRECTINIB SULFATE] = 788 ng/mL

---

# assay.name: Volume of distribution at steady state in healthy volunteer at 100 mg, twice daily
# study.conditions: human, in vivo, read-out: Vdss
metric: Vd (L)
// return numeric value only (unit: L, not printed)

GET /value?item= O=C(Nc1cnn2ccc(N3CCC[C@@H]3c3cc(F)ccc3F)nc12)N1CC[C@H](O)C1.O=S(=O)(O)O [LAROTRECTINIB SULFATE] &field=Vd returns 48

---

# system.name: Aurora kinase A (Homo sapiens)
# Sequence (O14965 whole entry): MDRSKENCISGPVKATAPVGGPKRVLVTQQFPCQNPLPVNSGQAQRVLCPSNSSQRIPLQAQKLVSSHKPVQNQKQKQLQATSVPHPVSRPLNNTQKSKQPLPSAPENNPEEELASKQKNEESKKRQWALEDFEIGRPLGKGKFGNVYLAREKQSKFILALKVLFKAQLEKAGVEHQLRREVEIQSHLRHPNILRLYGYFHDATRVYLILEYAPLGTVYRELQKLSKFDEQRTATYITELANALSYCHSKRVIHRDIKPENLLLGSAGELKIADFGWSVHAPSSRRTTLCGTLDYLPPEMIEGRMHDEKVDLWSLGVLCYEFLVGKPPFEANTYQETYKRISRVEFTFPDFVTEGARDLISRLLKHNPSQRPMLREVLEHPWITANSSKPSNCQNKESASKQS
metric: IC50 (nM)
The reply should contain only the number, in nM.

The compound listed as Cc1cn(-c2cc(C(=O)Nc3cccc(Nc4ccc5c(c4)NC(=O)/C5=C\c4ccc[nH]4)c3)cc(C(F)(F)F)c2)cn1 has a reported IC50 of 15

---

Measured pIC50, listed per entry for reference.
# system.name: High affinity nerve growth factor receptor (Homo sapiens)
# assay.name: Inhibition of NTRK1 in human KM12 cells
# Format: cell-based
pIC50: −log10 of the molar value.

Please review the entries below; each comes with its answer.
>  <smiles.entry>
COc1ncc(F)cc1[C@H]1C[C@H](F)CN1c1ccn2ncc(C#N)c2n1

>  <pIC50>
> 8.00

$$$$
>  <smiles.entry>
N#Cc1cc(F)cc([C@H]2C[C@H](F)CN2c2ccn3ncc(C#N)c3n2)c1

>  <pIC50>
> 8.00

$$$$

Reported pIC50 for N#Cc1cnn2ccc(N3C[C@@H](F)C[C@@H]3c3cc(F)ccc3F)nc12 was > 8.00

---

# system.name: Tyrosine-protein kinase JAK2 (Homo sapiens)
# Sequence (O60674 whole entry): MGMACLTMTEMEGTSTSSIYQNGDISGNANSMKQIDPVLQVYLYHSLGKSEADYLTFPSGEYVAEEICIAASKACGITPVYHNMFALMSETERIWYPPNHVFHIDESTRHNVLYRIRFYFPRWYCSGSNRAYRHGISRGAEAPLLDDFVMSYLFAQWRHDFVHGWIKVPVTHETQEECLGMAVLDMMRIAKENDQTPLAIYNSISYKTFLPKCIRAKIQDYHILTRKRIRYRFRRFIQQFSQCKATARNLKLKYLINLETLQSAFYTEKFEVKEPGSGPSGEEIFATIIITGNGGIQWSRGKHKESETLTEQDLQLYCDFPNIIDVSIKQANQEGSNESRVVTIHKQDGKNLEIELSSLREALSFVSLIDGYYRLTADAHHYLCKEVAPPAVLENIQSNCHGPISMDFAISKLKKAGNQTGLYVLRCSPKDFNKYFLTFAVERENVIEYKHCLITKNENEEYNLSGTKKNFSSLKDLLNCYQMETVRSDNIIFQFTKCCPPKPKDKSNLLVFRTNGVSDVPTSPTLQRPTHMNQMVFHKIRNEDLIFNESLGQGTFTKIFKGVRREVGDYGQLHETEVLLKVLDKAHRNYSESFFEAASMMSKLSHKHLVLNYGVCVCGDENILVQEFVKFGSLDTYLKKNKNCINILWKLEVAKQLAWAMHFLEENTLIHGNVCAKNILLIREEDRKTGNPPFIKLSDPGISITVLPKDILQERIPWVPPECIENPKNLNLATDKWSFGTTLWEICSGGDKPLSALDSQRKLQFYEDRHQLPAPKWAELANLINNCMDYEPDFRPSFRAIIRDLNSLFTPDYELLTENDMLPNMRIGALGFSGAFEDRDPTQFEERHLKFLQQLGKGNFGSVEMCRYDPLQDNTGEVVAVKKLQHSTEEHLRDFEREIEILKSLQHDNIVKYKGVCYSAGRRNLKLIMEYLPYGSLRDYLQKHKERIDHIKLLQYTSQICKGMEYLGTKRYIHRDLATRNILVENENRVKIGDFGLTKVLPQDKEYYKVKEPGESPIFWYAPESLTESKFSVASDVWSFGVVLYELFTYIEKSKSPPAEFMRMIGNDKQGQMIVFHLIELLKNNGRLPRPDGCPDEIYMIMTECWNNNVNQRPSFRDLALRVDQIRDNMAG
# assay.name: Inhibition of recombinant C-terminal His6-tagged human JAK2 (808 to end residues) expressed in baculovirus infected SF21 insect cells using Tyr 1054/1055 biotinylated peptide as substrate after 60 mins by Alphascreen assay
metric: IC50 (nM)
Enter your answer as a number in nM; do not include the unit.

So for Cc1cc(Nc2cnc(C#N)c(N[C@@H](C)c3ccc(F)cc3)n2)n[nH]1 , the logged IC50 turned out to be 33

---

# assay.name: Half life in healthy volunteer at 100 mg, twice daily
# study.conditions: human, in vivo
metric: half-life (h)
Respond with the bare value in h.

For O=C(Nc1cnn2ccc(N3CCC[C@@H]3c3cc(F)ccc3F)nc12)N1CC[C@H](O)C1.O=S(=O)(O)O [LAROTRECTINIB SULFATE] the compound record lists half-life as 2.9

---

# System: KARPAS-299
# assay.name: cells
# study.conditions: Homo sapiens, KARPAS-299, 48 h
# Description: Antiproliferative activity against human KARPAS299 cells incubated for 48 hrs by sulforhodamine B assay
metric: IC50
Answer shape: numeric part, then the unit.

The compound CN1CCN(c2ccc(C(=O)Nc3n[nH]c4ccc(Cc5cc(F)cc(F)c5)cc34)c(NC3CCOCC3)c2)CC1 [ENTRECTINIB] showed IC50 equal to 31 nM

---

# assay.name: Tmax in cancer patient at 100 mg, twice daily
# Format: ADME
# study.conditions: human, in vivo
metric: Tmax (h)
Provide the reading as a plain figure in h.

Entry O=C(Nc1cnn2ccc(N3CCC[C@@H]3c3cc(F)ccc3F)nc12)N1CC[C@H](O)C1.O=S(=O)(O)O [LAROTRECTINIB SULFATE] — recorded Tmax = 1

---

Recorded measurements of IC50, one per entry
# system.name: BDNF/NT-3 growth factors receptor (Homo sapiens)
# Sequence (Q16620 whole entry): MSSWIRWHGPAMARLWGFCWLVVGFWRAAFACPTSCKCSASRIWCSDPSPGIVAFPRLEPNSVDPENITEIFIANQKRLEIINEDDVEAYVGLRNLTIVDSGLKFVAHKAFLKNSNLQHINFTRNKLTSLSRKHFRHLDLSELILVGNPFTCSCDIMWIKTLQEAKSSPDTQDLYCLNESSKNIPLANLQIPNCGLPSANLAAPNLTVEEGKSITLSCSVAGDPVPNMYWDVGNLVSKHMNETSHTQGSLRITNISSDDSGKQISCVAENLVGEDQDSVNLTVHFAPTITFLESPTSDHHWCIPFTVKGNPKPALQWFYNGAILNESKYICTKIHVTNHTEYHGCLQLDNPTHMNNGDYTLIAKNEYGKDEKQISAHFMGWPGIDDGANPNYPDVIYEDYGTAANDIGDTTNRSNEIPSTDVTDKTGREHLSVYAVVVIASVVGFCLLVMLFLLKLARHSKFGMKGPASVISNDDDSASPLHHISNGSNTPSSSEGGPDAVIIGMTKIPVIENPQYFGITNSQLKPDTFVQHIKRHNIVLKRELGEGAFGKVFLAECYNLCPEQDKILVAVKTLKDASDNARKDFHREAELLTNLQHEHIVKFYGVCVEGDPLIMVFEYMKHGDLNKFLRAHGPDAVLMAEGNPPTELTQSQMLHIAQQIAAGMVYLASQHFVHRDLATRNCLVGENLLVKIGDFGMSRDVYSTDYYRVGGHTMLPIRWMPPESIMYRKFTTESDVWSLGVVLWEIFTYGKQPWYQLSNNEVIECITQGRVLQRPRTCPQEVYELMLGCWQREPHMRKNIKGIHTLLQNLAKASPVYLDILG
# assay.name: Inhibition of TRKB (unknown origin)
Write down the value, and be sure its unit follows.

Briefly, IC50 measured for CC(C)N1Cc2cc(c(F)cc2F)OCCCNC(=O)c2cnn3ccc1nc23 : 5000 nM

For CCN1CCN(Cc2ccc(NC(=O)Nc3nc4ccc(Oc5ccnc(C(=O)NC)c5)cc4s3)cc2C(F)(F)F)CC1 the compound record lists IC50 as 4.42 nM

Documented IC50 of CC(C)N1Cc2cc(cc(F)c2Cl)O[C@@H](C)CNC(=O)c2cnn3ccc1nc23 : 1500 nM

---

The following compounds each carry a recorded pIC50 for Tyrosine-protein kinase BTK (Homo sapiens, UniProt Q06187).
Please treat pIC50 as minus the base-10 logarithm of the molar concentration.

>  <smiles.entry>
CC(C)N1Cc2cc(cc(F)c2Cl)O[C@@H](C)CNC(=O)c2cnn3ccc1nc23

>  <measurement>
9.27

$$$$

// next item, pIC50 requested
Tyrosine-protein kinase BTK (Homo sapiens, UniProt Q06187) data for CC(C)N1Cc2cc(c(F)cc2F)OCCCNC(=O)c2cnn3ccc1nc23 ; its pIC50: 8.01
